Assay: Acute oral toxicity in mice
Settings: mouse, in vivo, po
Catalogue of LD50 at 168 h readings, one per entry.

[
  {
    "Compound": "CC1CN(c2c(F)c(N)c3c(=O)c(C(=O)O)cn(C4CC4)c3c2F)CC(C)N1 (stereo not drawn)",
    "LD50 at 168 h": "> 2000 mg/kg"
  }
]

The recorded LD50 at 168 h for CC1CN(c2c(F)c(N)c3c(=O)c(C(=O)O)cn(C4CC4)c3c2F)CCN1 (stereo not drawn) is > 2000 mg/kg

The recorded LD50 at 168 h for Nc1c(F)c(N2CCNCC2)c(F)c2c1c(=O)c(C(=O)O)cn2C1CC1 is > 2000 mg/kg
